In this section, each of the molecules is paired with its reported melting point.

See these solved cases before continuing.
1. COc1ccc(NC(=O)c2c(Nc3ccccc3)nn3c(-c4ccc(Br)cc4)c(N)c(-c4ccccc4)nc23)cc1 ... 256 to 258 °C
2. Cc1ccc(-c2nc3c(C(=O)Nc4ccc(Cl)cc4)c(Nc4ccccc4)nn3c(-c3ccc(Br)cc3)c2N)cc1 ... 271 to 273 °C

Alright, here's another molecule for you.
(Q) I have this molecule here, COc1ccc(-c2nc3c(C(=O)Nc4ccccc4)c(Nc4ccccc4)nn3c(-c3ccc(Cl)cc3)c2N)cc1 , and I need its recorded melting point.
(A) 237 to 238 °C

====

Endpoint: melting point

1) COc1ccc(NC(=O)c2c(Nc3ccccc3)nn3c(-c4ccccc4)c(N)c(-c4ccc(Cl)cc4)nc23)cc1 ... 245 to 246 °C
2) COc1ccc(NC(=O)c2c(Nc3ccccc3)nn3c(-c4cccs4)c(N)c(-c4ccc(Cl)cc4)nc23)cc1 ... 240 to 242 °C
3) Nc1c(-c2ccccc2)nc2c(C(=O)Nc3ccccc3)c(Nc3ccccc3)nn2c1-c1ccc(Cl)cc1 ... 248 to 249 °C
4) Nc1c(-c2ccc(Cl)cc2)nc2c(C(=O)Nc3ccc(Cl)cc3)c(Nc3ccccc3)nn2c1-c1ccccc1 ... 255 to 257 °C
5) CCOC(=O)c1c(-c2ccccc2)nn2c(-c3ccc(Br)cc3)c(N)c(-c3ccccc3)nc12 ... 201 to 202 °C

(Q) Sample Nc1c(-c2ccc(Cl)cc2)nc2c(C(=O)Nc3ccc(Cl)cc3)c(Nc3ccccc3)nn2c1-c1cccs1 — what was its melting point?
(A) 274 to 276 °C

(Q) Which melting point value is on record for Cc1ccc(-c2nc3c(C(=O)Nc4ccc(Cl)cc4)c(Nc4ccccc4)nn3c(-c3ccc(Cl)cc3)c2N)cc1 ?
(A) 281 to 282 °C

(Q) For the molecule shown here, Nc1c(-c2ccc(Cl)cc2)nc2c(C(=O)Nc3ccccc3)c(Nc3ccccc3)nn2c1-c1cccs1 , give the reported melting point.
(A) 270 to 271 °C

====

- Measurement target: α-glucosidase (Saccharomyces cerevisiae, EC.3.2.1.20) (Saccharomyces cerevisiae, UniProt P53341)
- Construct: purchased Sigma-Aldrich
- Sequence (P53341 whole entry): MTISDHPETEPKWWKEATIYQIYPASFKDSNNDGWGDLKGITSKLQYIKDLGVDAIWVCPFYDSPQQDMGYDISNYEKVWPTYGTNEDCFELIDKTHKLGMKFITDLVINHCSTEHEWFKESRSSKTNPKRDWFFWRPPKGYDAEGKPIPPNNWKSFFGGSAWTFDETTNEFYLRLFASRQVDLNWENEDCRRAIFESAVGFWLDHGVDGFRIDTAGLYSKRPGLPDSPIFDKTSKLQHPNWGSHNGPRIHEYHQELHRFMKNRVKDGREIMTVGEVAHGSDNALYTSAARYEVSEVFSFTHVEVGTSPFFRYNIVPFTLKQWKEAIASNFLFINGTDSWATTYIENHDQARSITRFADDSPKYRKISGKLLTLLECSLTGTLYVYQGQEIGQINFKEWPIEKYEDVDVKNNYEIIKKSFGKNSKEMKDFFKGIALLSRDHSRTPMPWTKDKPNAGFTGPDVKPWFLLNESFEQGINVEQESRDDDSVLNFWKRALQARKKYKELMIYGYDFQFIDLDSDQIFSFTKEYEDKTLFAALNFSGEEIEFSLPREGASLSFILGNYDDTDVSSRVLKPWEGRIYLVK
- Run description: biochemical
- Format: biochemical
- Experimental parameters: Table 1, compounds 3a-z; mean ± SD, at least three experiments; read-out: IC50 (µM), in vitro α-glucosidase inhibitory activity
# IC50 annotations
Enter your answer as a number in µM; do not include the unit.

Some solved cases for reference:
1) Cc1ccc(-c2nc3c(C(=O)Nc4ccccc4)c(Nc4ccccc4)nn3c(-c3ccc(Cl)cc3)c2N)cc1 ... 44.5
2) COc1ccc(NC(=O)c2c(Nc3ccccc3)nn3c(-c4ccc(Cl)cc4)c(N)c(-c4ccc(Cl)cc4)nc23)cc1 ... 36.5
3) Nc1c(-c2ccccc2)nc2c(C(=O)Nc3ccccc3)c(Nc3ccccc3)nn2c1-c1ccc(Br)cc1 ... 40

(Q) So what's the measured IC50 for this one? Nc1c(-c2ccc(Cl)cc2)nc2c(C(=O)Nc3ccccc3)c(Nc3ccccc3)nn2c1-c1ccccc1
(A) 75.6

(Q) Please report the recorded IC50 for COc1ccc(NC(=O)c2c(Nc3ccccc3)nn3c(-c4ccc(Cl)cc4)c(N)c(-c4ccc(C)cc4)nc23)cc1 .
(A) 49.3

(Q) What IC50 value was documented for this compound, COc1ccc(NC(=O)c2c(Nc3ccccc3)nn3c(-c4ccccc4)c(N)c(-c4ccc(OC)cc4)nc23)cc1 ?
(A) 42.6

(Q) Requested field: IC50. Item: Nc1c(-c2ccccc2)nc2c(C(=O)Nc3ccc(Cl)cc3)c(Nc3ccccc3)nn2c1-c1ccc(Br)cc1
(A) 60

(Q) Any idea what IC50 was measured for Cc1ccc(-c2nc3c(C(=O)Nc4ccccc4)c(Nc4ccccc4)nn3c(-c3ccc(Br)cc3)c2N)cc1 ?
(A) 15.2

====

As shown below, each of these compounds has a reported melting point value.

1. CCOC(=O)c1c(-c2ccccc2)nn2c(-c3ccc(Cl)cc3)c(N)c(-c3ccc(Cl)cc3)nc12 ... 245 to 246 °C
2. COc1ccc(-c2nc3c(C(=O)Nc4ccccc4)c(Nc4ccccc4)nn3c(-c3ccccc3)c2N)cc1 ... 257 to 259 °C

(Q) Return reported melting point; argument: CCOC(=O)c1c(-c2ccccc2)nn2c(-c3ccc(Cl)cc3)c(N)c(-c3ccccc3)nc12
(A) 180 to 182 °C

(Q) Request the reported melting point associated with Cc1ccc(-c2nc3c(C(=O)Nc4ccccc4)c(Nc4ccccc4)nn3c(-c3ccc(Cl)cc3)c2N)cc1
(A) 232 to 233 °C

====

- Measurement target: α-glucosidase (Saccharomyces cerevisiae, EC.3.2.1.20) (Saccharomyces cerevisiae)
- Construct: purchased Sigma-Aldrich
- Run description: biochemical
- Type: biochemical
- Experimental parameters: Table 1, compounds 3a-z; mean ± SD, at least three experiments; read-out: IC50 (µM), in vitro α-glucosidase inhibitory activity
// boundary case: IC50 equal to 30 µM maps to NO; strictly smaller maps to YES

1. Nc1c(-c2ccc(Cl)cc2)nc2c(C(=O)Nc3ccc(Cl)cc3)c(Nc3ccccc3)nn2c1-c1ccc(Cl)cc1 [3y] ... NO
2. Cc1ccc(-c2nc3c(C(=O)Nc4ccc(Cl)cc4)c(Nc4ccccc4)nn3c(-c3ccc(Cl)cc3)c2N)cc1 [3u] ... NO
3. Nc1c(-c2ccccc2)nc2c(C(=O)Nc3ccccc3)c(Nc3ccccc3)nn2c1-c1ccc(Cl)cc1 [3a] ... NO
4. COc1ccc(-c2nc3c(C(=O)Nc4ccccc4)c(Nc4ccccc4)nn3c(-c3ccc(Cl)cc3)c2N)cc1 [3f] ... NO
5. Nc1c(-c2ccc(Cl)cc2)nc2c(C(=O)Nc3ccccc3)c(Nc3ccccc3)nn2c1-c1ccc(Cl)cc1 [3h] ... YES
6. Nc1c(-c2ccccc2)nc2c(C(=O)Nc3ccc(Cl)cc3)c(Nc3ccccc3)nn2c1-c1ccc(Cl)cc1 [3s] ... NO

(Q) Hello, is IC50 of the following molecule strictly smaller than 30 µM? Nc1c(-c2ccc(Cl)cc2)nc2c(C(=O)Nc3ccccc3)c(Nc3ccccc3)nn2c1-c1cccs1 [3i]
(A) YES

(Q) Find out if reported IC50 for COc1ccc(NC(=O)c2c(Nc3ccccc3)nn3c(-c4ccc(Br)cc4)c(N)c(-c4ccc(C)cc4)nc23)cc1 [3m] is less than 30 µM
(A) YES

(Q) Does the reported IC50 of Nc1c(-c2ccc(Cl)cc2)nc2c(C(=O)Nc3ccc(Cl)cc3)c(Nc3ccccc3)nn2c1-c1ccccc1 [3x] stay below 30 µM?
(A) NO

(Q) Lab note: IC50 threshold 30 µM. Does this molecule come in strictly under it? COc1ccc(NC(=O)c2c(Nc3ccccc3)nn3c(-c4ccccc4)c(N)c(-c4ccc(Cl)cc4)nc23)cc1 [3p]
(A) NO

(Q) Could you please tell me whether IC50 recorded for COc1ccc(-c2nc3c(C(=O)Nc4ccccc4)c(Nc4ccccc4)nn3c(-c3ccccc3)c2N)cc1 [3e] is less than 30 µM?
(A) NO

====

Endpoint: melting point

Consider the following illustrative entries.
1. COc1ccc(-c2nc3c(C(=O)Nc4ccc(Cl)cc4)c(Nc4ccccc4)nn3c(-c3ccccc3)c2N)cc1 ... 255 to 257 °C
2. COc1ccc(NC(=O)c2c(Nc3ccccc3)nn3c(-c4ccc(Br)cc4)c(N)c(-c4ccc(C)cc4)nc23)cc1 ... 282 to 283 °C
3. CCOC(=O)c1c(-c2ccccc2)nn2c(-c3ccc(Cl)cc3)c(N)c(-c3ccc(C)cc3)nc12 ... 221 to 223 °C

(Q) Quick one: melting point for COc1ccc(NC(=O)c2c(Nc3ccccc3)nn3c(-c4ccccc4)c(N)c(-c4ccc(OC)cc4)nc23)cc1 ?
(A) 248 to 250 °C

(Q) Look up melting point for this molecule: COc1ccc(NC(=O)c2c(Nc3ccccc3)nn3c(-c4ccc(Cl)cc4)c(N)c(-c4ccc(Cl)cc4)nc23)cc1
(A) 245 to 246 °C

(Q) Form field: reported melting point of Nc1c(-c2ccccc2)nc2c(C(=O)Nc3ccc(Cl)cc3)c(Nc3ccccc3)nn2c1-c1ccc(Cl)cc1
(A) 274 to 275 °C

(Q) Please report the recorded melting point for CCOC(=O)c1c(-c2ccccc2)nn2c(-c3cccs3)c(N)c(-c3ccc(Cl)cc3)nc12 .
(A) 192 to 193 °C

====

- Measurement target: α-glucosidase (Saccharomyces cerevisiae, EC.3.2.1.20) (Saccharomyces cerevisiae, UniProt P53341)
- Construct: purchased Sigma-Aldrich
- Run description: biochemical
- Format: biochemical
- Experimental parameters: Table 1, compounds 3a-z; mean ± SD, at least three experiments; read-out: IC50 (µM), in vitro α-glucosidase inhibitory activity
Endpoint: IC50 (µM)
Reply numerically in µM, unit not repeated.

In the examples that follow, each entry is paired with its recorded IC50.
1. COc1ccc(NC(=O)c2c(Nc3ccccc3)nn3c(-c4ccc(Cl)cc4)c(N)c(-c4ccccc4)nc23)cc1 [3j] ... 30.3
2. COc1ccc(-c2nc3c(C(=O)Nc4ccc(Cl)cc4)c(Nc4ccccc4)nn3c(-c3ccccc3)c2N)cc1 [3w] ... 53.7
3. COc1ccc(NC(=O)c2c(Nc3ccccc3)nn3c(-c4cccs4)c(N)c(-c4ccc(Cl)cc4)nc23)cc1 [3r] ... 18.4
4. COc1ccc(NC(=O)c2c(Nc3ccccc3)nn3c(-c4ccc(Cl)cc4)c(N)c(-c4ccc(OC)cc4)nc23)cc1 [3o] ... 56.2
5. Nc1c(-c2ccc(Cl)cc2)nc2c(C(=O)Nc3ccc(Cl)cc3)c(Nc3ccccc3)nn2c1-c1cccs1 [3z] ... 19.3

(Q) Endpoint output: IC50 of COc1ccc(NC(=O)c2c(Nc3ccccc3)nn3c(-c4ccc(Br)cc4)c(N)c(-c4ccccc4)nc23)cc1 [3k] . Value?
(A) 57.4

(Q) Given the entry Cc1ccc(-c2nc3c(C(=O)Nc4ccc(Cl)cc4)c(Nc4ccccc4)nn3c(-c3ccc(Br)cc3)c2N)cc1 [3v] , report its measured IC50.
(A) 17.6
